test: Rate of dissolution of model melanin and color of its solutions; type: physicochemical, Aspergillus niger; details: solution of model melanin
measured_parameter: Color of the solution

Take a look at these entries with their results.
>>> print(df.to_string())
                                   molecule     measured_parameter  experimental_value
0                        FC(F)(Br)C(F)(F)Br  Color of the solution           Colorless
1  FC(F)(F)C(F)(F)C(F)(F)N(C(F)(F)C(F)(F)C(F)(F)F)C(F)(F)C(F)(F)C(F)(F)F  Color of the solution           Colorless
2  FC1(F)C(F)(F)C(F)(F)C2(F)C(F)(F)C(F)(F)C(F)(F)C(F)(F)C2(F)C1(F)F (stereo not shown)  Color of the solution           Colorless
3                                         N  Color of the solution                 -”-
4                                      NCCO  Color of the solution                 -”-

For the next question, use this molecule.
Enquiry: // query Color of the solution value for entry FN(F)C1(C(F)(F)F)C(F)(F)C(F)(F)C(F)(F)C(F)(C(F)(F)F)C1(F)F (stereo not shown)
Return: Lemon
